Remaining Percentage (%) values for the compounds below.
# TEST: Human liver microsomes stability
# Assay type: in vitro ADME
# COND: human liver microsomes, Without Cofactors, 30 min
Report as a plain number; the unit % is understood.

| COMPOUND | Remaining Percentage (%) |
| --- | --- |
| COc1ccc2[nH]cc(CCN3CC[C@H](OC(F)F)C3)c2c1 [(S) I-67] | 98.68 |
| CN(CCOC(F)F)CCc1c[nH]c2ccccc12 [Compound I-130] | 99.47 |
| O=C(O)Cc1ccccc1Nc1c(Cl)cccc1Cl [Diclofenac] | 112.67 |

Which Remaining Percentage (%) reading was recorded for the compound COc1ccc2[nH]cc(CCN3CC[C@@H](OC)C3)c2c1 [(R) I-66] ?
100.00

Which Remaining Percentage (%) reading was recorded for the compound CN(C)CCc1c[nH]c2ccc(OCCOC(F)F)cc12 [Compound I-128] ?
39.57

Which Remaining Percentage (%) reading was recorded for the compound COc1ccc2[nH]cc(CCN(C)C)c2c1 [Compound 5-MeO-DMT] ?
18.58

Which Remaining Percentage (%) reading was recorded for the compound COc1ccc2[nH]cc(CCN(C)CCOC(F)F)c2c1 [Compound I-71] ?
98.77

Which Remaining Percentage (%) reading was recorded for the compound COc1ccc2[nH]cc(CCN3CC[C@@H](OC(F)F)C3)c2c1 [(R) I-67] ?
79.21

* * *

# TEST: Human liver microsomes stability
# Type: in vitro ADME
# COND: human liver microsomes
Predicted hepatic CL values for the compounds below.
Report as a plain number; the unit mL/min/kg is understood.

| COMPOUND | UNIT_SPEC | Predicted hepatic CL |
| --- | --- | --- |
| COc1ccc2[nH]cc(CCN3CC[C@@H](OC(F)F)C3)c2c1 [(R) I-67] | mL/min/kg | 15.34 |
| CN(CCOC(F)F)CCc1c[nH]c2ccccc12 [Compound I-130] | mL/min/kg | 18.58 |

Which Predicted hepatic CL reading was recorded for the compound COc1ccc2[nH]cc(CCN3CC[C@H](OC(F)F)C3)c2c1 [(S) I-67] ?
13.30

Which Predicted hepatic CL reading was recorded for the compound CN(C)CCc1c[nH]c2ccc(OCCOC(F)F)cc12 [Compound I-128] ?
16.28

Which Predicted hepatic CL reading was recorded for the compound COc1ccc2[nH]cc(CCN(C)C)c2c1 [Compound 5-MeO-DMT] ?
18.09

Which Predicted hepatic CL reading was recorded for the compound COc1ccc2[nH]cc(CCN3CC[C@@H](OC)C3)c2c1 [(R) I-66] ?
4.37

Which Predicted hepatic CL reading was recorded for the compound COc1ccc2[nH]cc(CCN(C)CCOC(F)F)c2c1 [Compound I-71] ?
17.80

* * *

# TEST: Pharmacokinetic studies in rat (i.v.)
# Type: in vivo
# COND: male, Sprague-Dawley, rat, plasma, iv, 1.2 mg/kg, I-12 1.2 mg/kg i.v., rat plasma, 1 h, individual rats R01-R03; read-out: Plasma concentration
METRIC: concentration at 1 h (ng/mL)
Report as a plain number; the unit ng/mL is understood.

Which concentration at 1 h reading was recorded for the compound CCN(CC)CCc1c[nH]c2ccc(SC)cc12 [Compound I-12] ?
27.6

* * *

IC50 values for the molecules below.
# TESTED_SYSTEM: 5-HT2B receptor (Homo sapiens)
# Sequence (P41595 whole entry): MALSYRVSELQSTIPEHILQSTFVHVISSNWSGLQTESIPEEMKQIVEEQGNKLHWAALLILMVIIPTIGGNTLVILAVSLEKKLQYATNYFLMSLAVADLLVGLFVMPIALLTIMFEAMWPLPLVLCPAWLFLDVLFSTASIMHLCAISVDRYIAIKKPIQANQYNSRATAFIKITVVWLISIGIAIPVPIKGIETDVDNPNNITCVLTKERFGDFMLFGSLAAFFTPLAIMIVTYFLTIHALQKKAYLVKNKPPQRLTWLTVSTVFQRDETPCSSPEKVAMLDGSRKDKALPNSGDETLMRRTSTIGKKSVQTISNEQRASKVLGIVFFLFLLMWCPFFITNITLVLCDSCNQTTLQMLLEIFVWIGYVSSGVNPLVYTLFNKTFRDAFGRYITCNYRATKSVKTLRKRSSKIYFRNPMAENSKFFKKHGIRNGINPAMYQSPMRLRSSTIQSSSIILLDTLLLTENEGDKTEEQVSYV
# TEST: Human 5-HT2B radioligand binding assay ([3H]-LSD)
# Parameters: host or cells: cell membrane, dosed as 1 unit/well
Report as a plain number; the unit µM is understood.

| MOLECULE | METRIC | UNIT_SPEC | MEASURED_RESULT |
| --- | --- | --- | --- |
| CCN(CC)CCc1c[nH]c2ccc(SC)cc12 [Compound I-12] | IC50 | µM | 0.451 |
| CSc1ccc2[nH]cc(CCN(C(C)C)C(C)C)c2c1 [Compound I-17] | IC50 | µM | 0.221 |
| [2H]C([2H])([2H])N(CCc1c[nH]c2ccc(SC)cc12)C([2H])([2H])[2H] [Compound I-1] | IC50 | µM | 0.0745 |
| CCN(C)CCc1c[nH]c2ccc(SC)cc12 [Compound I-13] | IC50 | µM | 0.064 |

For the next question, use this molecule.
Which IC50 reading was recorded for the molecule CSc1ccc2[nH]cc(CCN(C)C(C)C)c2c1 [Compound I-19] ?
0.276
